Test system: 43 cancer cell lines and one normal cell line
Experiment: In vitro cell viability assay (intracellular ATP, 72 hour)
Format: cell-based
Conditions: CT26.WT (Colon Cancer); 10 μM
The following compounds are shown together with reported % Cell growth values.
Reply with just the number (in %).

INSERT INTO results (compound, quantity_kind, endpoint_unit, numeric_result) VALUES
  ('CC(C)=CCC[C@@H]1C(O)Oc2c(C)cc(O)c3c2[C@H]1CC[C@H]3C (stereo partly shown) [Compound 2, 5,18-epoxyserrulat-14-en-8,18-diol]', '% Cell growth', '%', 120);

Fill blank: measured % Cell growth of the compound CC(C)=CCC[C@H](C)[C@@H]1CC[C@@H](C)c2c1cc(C)c(O)c2O [Compound 4, 7,8-dihydroxyserrulat-14-ene] is ____. 33

Ok, now CC(C)=CCC[C@@H]1COc2c(C)cc(O)c3c2[C@H]1CC[C@H]3C [Compound 3, 5,18-epoxy-8-hydroxyserrulat-14-ene] 103

Ok, now CC(C)=CCC[C@H](CO)[C@@H]1CC[C@@H](C)c2c1cc(C)c(O)c2O [Compound 1, 7,8,18-trihydroxyserrulat-14-ene] 2
